Assay target: T1, recombinant His-tagged human FRα (human, UniProt P15328 25-234)
T1 construct: Bought protein; also called hFRα; FRα-HIS
T1 sequence (P15328 25-234 limits assumed): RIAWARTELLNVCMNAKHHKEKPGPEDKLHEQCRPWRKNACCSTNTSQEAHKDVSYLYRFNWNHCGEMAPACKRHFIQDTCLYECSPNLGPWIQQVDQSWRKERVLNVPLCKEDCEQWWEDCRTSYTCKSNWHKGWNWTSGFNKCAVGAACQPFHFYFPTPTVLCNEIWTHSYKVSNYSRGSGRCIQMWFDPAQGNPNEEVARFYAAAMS
Measurement notes: BLI, purified, average n=2
// reported Kd for each item listed
Field format: number, assumed nM, no unit text.

Recorded Kd, per entry:
v23811 (antibody, human IgG1, kappa, V domains shown, also called humanized 8K22 H3L4) VH: EVQLVESGGGLVQPGGSLRLSCAASGFTISNNYYMCWVRQAPGKGLEWIACIYGGISGRTYYADSAKGRFTISKDSSKNTVYLQMNSLRAEDTAVYYCVRGYVGTSNLWGQGTLVTVSS VL: DIQMTQSPSSLSASVGDRVTITCQASQSIYSSLAWYQQKPGKAPKLLIYDASHLASGVPSRFSGSGSGTDFTLTISSVQPEDAATYYCQGGWYSSAATYVPNTFGGGTKVEVKR | 8.83
v23806 (antibody, human IgG1, kappa, V domains shown, also called humanized 8K22 H3L3) VH: EVQLVESGGGLVQPGGSLRLSCAASGFTISNNYYMCWVRQAPGKGLEWIACIYGGISGRTYYADSAKGRFTISKDSSKNTVYLQMNSLRAEDTAVYYCVRGYVGTSNLWGQGTLVTVSS VL: DIQMTQSPSSLSASVGDRVTITCQASQSIYSSLAWYQQKPGKAPKLLIYDASHLASGVPSRFSGSRYGTDFTLTISSVQPEDFATYYCQGGWYSSAATYVPNTFGGGTKVEVKR | 7
v23804 (antibody, human IgG1, kappa, V domains shown, also called humanized 8K22 H1L3) VH: EVQLVESGGGLVQPGGSLRLSCAASGFTISNNYYMCWVRQAPGKGLEWVSCIYGGISGRTYYADSVKGRFTISKDNSKNTLYLQMNSLRAEDTAVYYCVRGYVGTSNLWGQGTLVTVSS VL: DIQMTQSPSSLSASVGDRVTITCQASQSIYSSLAWYQQKPGKAPKLLIYDASHLASGVPSRFSGSRYGTDFTLTISSVQPEDFATYYCQGGWYSSAATYVPNTFGGGTKVEVKR | 4.66

Sample v23814 (antibody, human IgG1, kappa, V domains shown, also called humanized 8K22 H1L5) VH: EVQLVESGGGLVQPGGSLRLSCAASGFTISNNYYMCWVRQAPGKGLEWVSCIYGGISGRTYYADSVKGRFTISKDNSKNTLYLQMNSLRAEDTAVYYCVRGYVGTSNLWGQGTLVTVSS VL: DIQMTQSPSSLSASVGDRVTITCQASQSIYSSLAWYQQKPGKAPKLLIYDASHLASGVPSRFSGSRYGTDFTLTISSVQPEDAATYYCQGGWYSSAATYVPNTFGGGTKVEVKR — what was its Kd?
6.31

Sample v23816 (antibody, human IgG1, kappa, V domains shown, also called humanized 8K22 H3L5) VH: EVQLVESGGGLVQPGGSLRLSCAASGFTISNNYYMCWVRQAPGKGLEWIACIYGGISGRTYYADSAKGRFTISKDSSKNTVYLQMNSLRAEDTAVYYCVRGYVGTSNLWGQGTLVTVSS VL: DIQMTQSPSSLSASVGDRVTITCQASQSIYSSLAWYQQKPGKAPKLLIYDASHLASGVPSRFSGSRYGTDFTLTISSVQPEDAATYYCQGGWYSSAATYVPNTFGGGTKVEVKR — what was its Kd?
10.6
